The values you see were collected from paper PMC8063472.

Quick list: Tmax per entry.
# METHOD: Pharmacokinetic study in rats (plasma LC-MS/MS) after iv or oral VOC, oral VOC-P188 or oral VOC-β-CD
# Format: in vivo, Sprague Dawley rats
# MEASUREMENT SETUP: male, Sprague-Dawley, rat, plasma, po, 120 mg/kg, after oral administration of VOC, rats; read-out: Tmax (time of peak concentration)

In [3]: df
Out[3]:
                                   compound  measured_metric  test_value
0  CCCC[C@@H]1OC(=O)c2ccccc21 [NBP, N-butylphthalide, reference compound]             Tmax    < 30 min

From here, focus on the item given below.
Input line: Complete the entry with Tmax for CCC/C=C1\OC(=O)c2ccccc21
Output line: < 30 min

---

# METHOD: Pharmacokinetic study in rats (plasma LC-MS/MS) after iv or oral VOC, oral VOC-P188 or oral VOC-β-CD
# Type: in vivo, Sprague Dawley rats
# MEASUREMENT SETUP: VOC-P188 solid dispersion po vs VOC po, rats
Quick list: F2 (relative bioavailability) per entry.
All answers are understood in %, so give the number only.

// known answers, use as guide
                                   compound  test_value
0  CCC/C=C1\OC(=O)C2=C1CCC=C2 [ZL, Z-ligustilide]      163.35
1  CCCC[C@@H]1OC(=O)C2=CCCC[C@H]21 [NOL, Neocnidilide]      258.18
2  CCCC[C@@H]1OC(=O)c2ccccc21 [NBP, N-butylphthalide, reference compound]      197.67
3                  CCC/C=C1\OC(=O)c2ccccc21      251.50

Input line: Complete the entry with F2 (relative bioavailability) for CCCCC1OC(=O)C2=C1CCC=C2 (centres unmarked) [SA, senkyunolide A]
Output line: 185.82

---

# METHOD: Pharmacokinetic study in rats (plasma LC-MS/MS) after iv or oral VOC, oral VOC-P188 or oral VOC-β-CD
# Type: in vivo, Sprague Dawley rats
# MEASUREMENT SETUP: male, Sprague-Dawley, rat, plasma, po, 120 mg/kg, VOC po 120 mg/kg, rat plasma, n = 6; read-out: t1/2β (converted)
With a cut-off of 4 h, any half-life strictly below it is called 1; any half-life meeting it or above is called -1.

In [3]: df
Out[3]:
                                   compound  answer_label
0  CCCC[C@@H]1OC(=O)C2=CCCC[C@H]21 [NOL, Neocnidilide]             1
1  CCC/C=C1\OC(=O)C2=C1CCC=C2 [ZL, Z-ligustilide]            -1
2  CCCCC1OC(=O)C2=C1CCC=C2 (centres unmarked) [SA, senkyunolide A]             1
3  CCCC[C@@H]1OC(=O)c2ccccc21 [NBP, N-butylphthalide, reference compound]             1

Kindly review the next compound as well.
Input line: Lab note: confirm whether the reported half-life for this compound is below 4 h, equality not counting. compound: CCC/C=C1\OC(=O)c2ccccc21 [BP]
Output line: 1

---

# METHOD: Pharmacokinetic study in rats (plasma LC-MS/MS) after iv or oral VOC, oral VOC-P188 or oral VOC-β-CD
# Format: in vivo, Sprague Dawley rats
# MEASUREMENT SETUP: male, Sprague-Dawley, rat, plasma, po, VOC-β-CD inclusion compound po, rat plasma, n = 6
Quick list: AUC(0-t) per entry.
All answers are understood in ng·h/mL, so give the number only.

>>> print(df.to_string())
                                   compound  display_unit  test_value
0  CCC/C=C1\OC(=O)C2=C1CCC=C2 [ZL, Z-ligustilide]       ng·h/mL         883
1  CCCC[C@@H]1OC(=O)c2ccccc21 [NBP, N-butylphthalide, reference compound]       ng·h/mL        76.1
2  CCCCC1OC(=O)C2=C1CCC=C2 (centres unmarked) [SA, senkyunolide A]       ng·h/mL        1830

Input line: Complete the entry with AUC(0-t) for CCC/C=C1\OC(=O)c2ccccc21 [BP]
Output line: 298

Input line: Complete the entry with AUC(0-t) for CCCC[C@@H]1OC(=O)C2=CCCC[C@H]21 [NOL, Neocnidilide]
Output line: 945
